These measurements were taken from patent US20180044434A1.

Here, each record is paired with measured OD 490/630 nm data.
biological target: T1, Ala mutant of TA0096, SEQ ID NO: 38; assay: ELISA, coated peptide
T1 peptide: EENMDDQWMQDAMEIGY

[[record]]
binder = "G8 (antibody, V domains shown, Chicken variable regions in a mouse chimeric antibody (IgG1); also called anti-PAD4 antibody G8) VH: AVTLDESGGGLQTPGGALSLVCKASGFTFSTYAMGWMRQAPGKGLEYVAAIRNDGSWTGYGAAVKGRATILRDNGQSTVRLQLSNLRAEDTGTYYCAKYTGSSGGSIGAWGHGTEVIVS VL: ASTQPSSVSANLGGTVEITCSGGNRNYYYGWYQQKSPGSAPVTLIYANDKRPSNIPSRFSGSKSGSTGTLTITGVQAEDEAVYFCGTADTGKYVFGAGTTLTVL"
measurement = 1.91


Okay, now this binder:
Reported OD 490/630 nm for G6 (antibody, V domains shown, Chicken variable regions in a mouse chimeric antibody (IgG1); also called anti-PAD4 antibody G6) VH: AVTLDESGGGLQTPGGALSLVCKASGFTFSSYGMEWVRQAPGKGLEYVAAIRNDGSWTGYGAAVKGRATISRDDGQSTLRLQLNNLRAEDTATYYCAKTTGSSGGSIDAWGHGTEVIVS VL: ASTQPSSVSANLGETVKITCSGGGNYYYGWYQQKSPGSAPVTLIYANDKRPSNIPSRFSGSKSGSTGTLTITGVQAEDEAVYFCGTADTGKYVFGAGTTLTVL was 1.92
